All figures here come from ChEMBL document CHEMBL3351647.

Provide the recorded Activity for the entries that follow.
test: Antioxidant activity assessed as […] scavenging activity by measuring NaNO2 at 50 uM by spectrophotometry; assay type: physicochemical
Give the figure together with its unit, number first.

{"Compound": "CC1(C)OCC(C[Te]c2ccccc2)O1 (centres undefined)", "Activity": "55.95 µM"}

Hey, can you go through the list below and give me Activity for every item?
1. CC1(C)OCC(CSc2ccccc2)O1 (centres undefined)
2. CC1(C)OCC(C[Se]c2ccccc2)O1 (centres undefined)
3. CC1(C)OCC(CO)O1 (centres undefined)

Completion:
["50.91 µM", "52.5 µM", "55.45 µM"]

---

test: Antioxidant activity assessed as ABTS radical scavenging activity at 25 uM by spectrophotometry relative to control; assay type: physicochemical
Metric: Activity (%)
Give bare numbers, in %.

{"Compound": "CC1(C)OCC(C[Se]c2ccccc2)O1 (centres undefined)", "Activity (%)": 0}

For every item below, please supply its Activity.
1. CC1(C)OCC(CO)O1 (centres undefined)
2. CC1(C)OCC(C[Te]c2ccccc2)O1 (centres undefined)
3. CC1(C)OCC(CSc2ccccc2)O1 (centres undefined)

Completion:
1. 0
2. 53.41
3. 0
